B1: TPD52L1 (parent)
chain: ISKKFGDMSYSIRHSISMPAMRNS

Variants of: B1
Assay: protein stability index of a GFP-peptide fusion (GPS, HEK-293T) (PSI 1-6); higher = more stable;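 further: lentivirally expressed fusions sorted by FACS into six bins by GFP to DsRed ratio, PSI derived from sequencing read proportions per bin multiplied by bin number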
Conditions: c terminus: a fixed tail appended
Classify by measured protein stability index: criterion met if it is equal to or exceeds 2, criterion not met if it is smaller.

ISKKFGDMSYSIRHSISMPAMRNG [S24G] = criterion met
ISKKFGDMSYSIRHSISMPAMRNC [S24C] = criterion not met
ISKKFGDMSYSIRHSISMPAMRYS [N23Y] = criterion not met
ISKKFNDMSYSIRHSISMPAMRNS [G6N] = criterion met
ISKKFGDMSYSIRHSISFPAMRNS [M18F] = criterion not met

### Prompt Determine whether measured protein stability index meets or exceeds 2 for ISKKFGDMSYSICHSISMPAMRNS [R13C]
### Response criterion not met

### Prompt Determine whether measured protein stability index meets or exceeds 2 for ISKKFGDMSYSIRHSISMPAARNS [M21A]
### Response criterion met

### Prompt Determine whether measured protein stability index meets or exceeds 2 for ISKKFGDDSYSIRHSISMPAMRNS [M8D]
### Response criterion met

### Prompt Determine whether measured protein stability index meets or exceeds 2 for ISKKFGDMSYSIRHSISMPAMWNS [R22W]
### Response criterion not met

### Prompt Determine whether measured protein stability index meets or exceeds 2 for ISKKFGDMSYSIRHSISMEAMRNS [P19E]
### Response criterion met

### Prompt Determine whether measured protein stability index meets or exceeds 2 for ISKKFGDMSYSIRHSIMMPAMRNS [S17M]
### Response criterion met

### Prompt Determine whether measured protein stability index meets or exceeds 2 for IMKKFGDMSYSIRHSISMPAMRNS [S2M]
### Response criterion not met

### Prompt Determine whether measured protein stability index meets or exceeds 2 for ISKKFGDMSYSIRHSISMPAWRNS [M21W]
### Response criterion met

### Prompt Determine whether measured protein stability index meets or exceeds 2 for ISKKFGDMSYSIRHSISMPARRNS [M21R]
### Response criterion met

### Prompt Determine whether measured protein stability index meets or exceeds 2 for ISKKFGDMSYSARHSISMPAMRNS [I12A]
### Response criterion met

### Prompt Determine whether measured protein stability index meets or exceeds 2 for ISKKFGDTSYSIRHSISMPAMRNS [M8T]
### Response criterion met

### Prompt Determine whether measured protein stability index meets or exceeds 2 for ISKKFGDMSYHIRHSISMPAMRNS [S11H]
### Response criterion met

### Prompt Determine whether measured protein stability index meets or exceeds 2 for ISKKFGDMSYSIRHSISMPNMRNS [A20N]
### Response criterion met

### Prompt Determine whether measured protein stability index meets or exceeds 2 for ISKRFGDMSYSIRHSISMPAMRNS [K4R]
### Response criterion met

### Prompt Determine whether measured protein stability index meets or exceeds 2 for ISKKFGDMSYSIRHSISVPAMRNS [M18V]
### Response criterion not met
